RNA-seq results: FAM111A expression listing for selected compounds.
Tested on: hepatocytes
testName: RNA-seq of hepatocytes treated with Phase III failure compounds
conditions: gene FAM111A; hepatocytes
Protocol: RNA-seq was performed to determine the effects of the compounds on hepatocytes. Significance was determined by the criteria of FPKM≥0.5, a log 2(fold-change)≥1, and a […].
metric: RNA-seq results: FAM111A expression

# compound, measuredOn, reported
measured = [
    ("COc1cc2nccc(Oc3ccc(NC(=O)Nc4cc(C)on4)c(Cl)c3)c2cc1OC", "hepatocytes", 0.18),
    ("CCN(CC)CCN(Cc1ccc(-c2ccc(C(F)(F)F)cc2)cc1)C(=O)Cn1c(SCc2ccc(F)cc2)nc(=O)c2c1CCC2", "hepatocytes", 0.1),
    ("CCC(CC)[C@H](NC(C)=O)[C@@H]1[C@H](O)[C@@H](C(=O)O)C[C@H]1NC(=N)N.O.O.O [peramivir (trihydrate), peramivir]", "hepatocytes", "−0.05"),
    ("O=P(O)(NCCCl)NCCCl [Palifosfamide]", "hepatocytes", "−0.05"),
    ("NC(=O)c1ccc(I)c([N+](=O)[O-])c1", "hepatocytes", 0.07),
    ("COc1cc2c(Oc3ccc4[nH]c(C)cc4c3F)ncnc2cc1OCCCN1CCCC1", "hepatocytes", "−0.68"),
    ("CCOC(=O)N1c2ccc(C(F)(F)F)cc2[C@@H](N(Cc2cc(C(F)(F)F)cc(C(F)(F)F)c2)C(=O)OC)C[C@H]1CC", "hepatocytes", "−0.26"),
    ("Cn1cc(C2=C(c3cn(C4CCN(Cc5ccccn5)CC4)c4ccccc34)C(=O)NC2=O)c2ccccc21", "hepatocytes", 0.49),
]

----------
System: hepatocytes
testName: RNA-seq of hepatocytes treated with Phase III failure compounds
conditions: gene FGA; hepatocytes
metric: RNA-seq results: FGA expression

# structureSmiles, measuredOn, metric, reported
data = [
    ("COc1cc(Nc2ncc(F)c(Nc3ccc4c(n3)N(COP(=O)(O)O)C(=O)C(C)(C)O4)n2)cc(OC)c1OC", "hepatocytes", "RNA-seq results: FGA expression", "−0.24"),
    ("NC(=O)c1ccc(I)c([N+](=O)[O-])c1", "hepatocytes", "RNA-seq results: FGA expression", 0.16),
    ("Cn1cnc2c(F)c(Nc3ccc(Br)cc3Cl)c(C(=O)NOCCO)cc21", "hepatocytes", "RNA-seq results: FGA expression", 0.07),
    ("COc1cc2c(Oc3ccc4[nH]c(C)cc4c3F)ncnc2cc1OCCCN1CCCC1", "hepatocytes", "RNA-seq results: FGA expression", 0.87),
]

----------
System: hepatocytes
testName: RNA-seq of hepatocytes treated with Phase III failure compounds
conditions: gene CD81; hepatocytes
Counter-ions that a name gives are not always drawn.

# compound, CD81 expression, RNA-seq result
data = [
    ("COc1nc(N)nc2c1ncn2[C@@H]1O[C@H](COP(=O)(N[C@@H](C)C(=O)OCC(C)(C)C)Oc2cccc3ccccc23)[C@@H](O)[C@@]1(C)O (stereo partly shown)", 0.03),
    ("Fc1ccc(C(OCCN2CCN(CCCc3ccccc3)CC2)c2ccc(F)cc2)cc1 [Vanoxerine (dihydrochloride), Vanoxerine]", 0.3),
    ("Cn1c(COP(=O)(NCCBr)NCCBr)cnc1[N+](=O)[O-] [TH-302 (Evofosfamide), Evofosfamide]", 0.09),
    ("COc1nc(C)cnc1NS(=O)(=O)c1cccnc1-c1ccc(-c2nnco2)cc1", "−0.76"),
    ("COCCOc1ccc(N2CCN(CCn3ncc4c3nc(N)n3nc(-c5ccco5)nc43)CC2)cc1", "−0.26"),
    ("O=C(N[C@H]1CN2CCC1CC2)c1cc2cccc(Cl)c2s1 [EVP-6124 (hydrochloride) (encenicline), encenicline]", 0.27),
    ("CC(C)[C@H](O)C(=O)N[C@@H](C)C(=O)N[C@@H]1C(=O)N(C)CCc2ccccc21", "−0.02"),
]
